biological target: LHRH (Rattus norvegicus, UniProt P30969); construct: endogenous in cells; host or cells: rat pituitary cells (own knowledge of the cited Haviv 1989 method); assay: in vitro test for LHRH antagonist potency (pA2); assay type: cell-based; details: negative logarithm of the antagonist concentration required to shift the response curve produced by the agonist leuprolide to two-fold higher concentration
Sequence (P30969 whole entry): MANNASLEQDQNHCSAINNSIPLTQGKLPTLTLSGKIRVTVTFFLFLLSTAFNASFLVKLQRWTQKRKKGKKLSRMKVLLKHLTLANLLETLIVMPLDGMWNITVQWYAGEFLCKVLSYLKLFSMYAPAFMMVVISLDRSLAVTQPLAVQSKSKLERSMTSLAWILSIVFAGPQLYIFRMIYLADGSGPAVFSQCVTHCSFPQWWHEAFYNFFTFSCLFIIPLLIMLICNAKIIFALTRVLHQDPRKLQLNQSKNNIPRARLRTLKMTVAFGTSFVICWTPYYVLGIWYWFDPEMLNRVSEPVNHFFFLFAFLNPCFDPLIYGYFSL
Non-standard residues stand in square brackets, D forms with d. Residues, ends and D or L forms follow the SMILES beside them. *: point of attachment. dPhe(4-Cl) = N[C@H](Cc1ccc(Cl)cc1)C(=O)O; d2Nal = N[C@H](Cc1ccc2ccccc2c1)C(=O)O; Lys(iPr) = CC(C)NCCCC[C@H](N)C(=O)O; NMeY = CN[C@@H](Cc1ccc(O)cc1)C(=O)O; d3Pal = N[C@H](Cc1cccnc1)C(=O)O; Salicyloyl = O=C(c1ccccc1O)*; Nicotinoyl = O=C(c1cccnc1)*; azaGly = NNC(=O)O
result.type: Kb (pM)
Dear colleague, please return just the value in pM, with no unit written.

// query Give Kb only, for CC(C)C[C@H](NC(=O)[C@@H](CCCCNC(=O)c1cccnc1)NC(=O)[C@H](Cc1ccc(O)cc1)N(C)C(=O)[C@H](CO)NC(=O)[C@@H](Cc1cccnc1)NC(=O)[C@@H](Cc1ccc(Cl)cc1)NC(=O)[C@@H](Cc1ccc2ccccc2c1)NC(=O)CNC(=O)[C@@H]1CCCO1)C(=O)N[C@H](CCCCNC(C)C)C(=O)N1CCC[C@H]1C(=O)N[C@H](C)C(N)=O [Example 89] , using LHRH (Rattus norvegicus, UniProt P30969) data.
// result 132

// query Give Kb only, for CC(C)C[C@H](NC(=O)[C@@H](CCCCNC(=O)c1cccnc1)NC(=O)[C@H](Cc1ccc(O)cc1)N(C)C(=O)[C@H](CO)NC(=O)[C@@H](Cc1cccnc1)NC(=O)[C@@H](Cc1ccc(Cl)cc1)NC(=O)[C@@H](Cc1ccc2ccccc2c1)NC(=O)NNC(=O)c1ccccc1O)C(=O)N[C@@H](CCCCNC(C)C)C(=O)N1CCC[C@H]1C(=O)N[C@H](C)C(N)=O [Example 37c] (Salicyloyl-[azaGly][d2Nal][dPhe(4-Cl)][d3Pal]S[NMeY][dK](Nicotinoyl)L[Lys(iPr)]P[dA]-NH2) , using LHRH (Rattus norvegicus, UniProt P30969) data.
// result 25.1

// query Give Kb only, for CC(C)C[C@H](NC(=O)[C@@H](CCCCNC(=O)c1cccnc1)NC(=O)[C@H](Cc1ccc(O)cc1)N(C)C(=O)[C@H](CO)NC(=O)[C@@H](Cc1cccnc1)NC(=O)[C@@H](Cc1ccc(Cl)cc1)NC(=O)[C@@H](Cc1ccc2ccccc2c1)NC(=O)CNC(=O)[C@H]1CCCO1)C(=O)N[C@@H](CCCCNC(C)C)C(=O)N1CCC[C@H]1C(=O)N[C@H](C)C(N)=O [Example 5] , using LHRH (Rattus norvegicus, UniProt P30969) data.
// result 21.4
